Target: recombinant human PD-1 (human, UniProt Q15116 25-167)
Sequence (Q15116 25-167): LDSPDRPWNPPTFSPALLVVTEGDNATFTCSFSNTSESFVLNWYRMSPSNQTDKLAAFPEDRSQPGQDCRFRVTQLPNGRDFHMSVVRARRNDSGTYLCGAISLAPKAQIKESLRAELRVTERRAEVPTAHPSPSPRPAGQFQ
Test: SPR
property.measured: Kd (nM)
Reply numerically in nM, unit not repeated.

Form field Kd, entry 1.103.11 hAb (antibody, V domains shown) VH: QLQLQESGPGLVKPSETLTLTCTVSADSISSTTYYWVWIRQPPGKGLEWIGSISYSGSTYYNPSLKSRVTVSVDTSKNQFSLKLNSVAATDTALYYCARHLGYNGRYLPFDYWGQGTLVTVSS VL: QSALTQPASVSGSPGQSITISCTGTSSDVGFYNYVSWYQQHPGKAPELMIYDVSNRPSGVSDRFSGSKSGNTASLTISGLQAEDEADYYCSSYTNISTWVFGGGTKLTVL : 0.175
